# Test system: SARS-CoV-2
# experiment.notes: microbe, parasite or virus in culture
# Assay type: cell-based
# run.parameters: Severe acute respiratory syndrome coronavirus 2; Vero cells; virus yield, 48 h post-infection; read-out: Anti-SARS-COV-2 activity in Vero cells EC90
Listed next: entries and their corresponding EC90.
Hi! Could you send only the number? It should be in µM, unit omitted.

Worked cases, answers included:
> print(dat)
                                   molecule  measured.parameter  endpoint.result
1  O=c1cnn([C@@H]2O[C@H](CO)C(O)C2O)c(=O)[nH]1 (stereo partly drawn) [drawing 46]                EC90              2.5
2  CC1(O)C(O)[C@H](n2ccc(N)nc2=O)O[C@@H]1CO (stereo partly drawn)                EC90              3.6
3  OC[C@H]1O[C@@H](n2cnc3c(S)ncnc32)C(O)C1O (stereo partly drawn)                EC90             23.5
4  Nc1nccc2c1ncn2[C@@H]1O[C@H](CO)C(O)C1O (stereo partly drawn)                EC90             15.2
5  CC1(O)C(O)[C@H](n2ccc(NO)nc2=O)S[C@@H]1CO (stereo partly drawn)                EC90              8.7
6  CC1(O)C(O)[C@@H](CO)O[C@H]1n1cc(F)c2c(N)ncnc21 (stereo partly drawn)                EC90             28.8

In: Kindly indicate its recorded EC90. Item: CC1(O)C(O)[C@@H](CO)O[C@H]1n1ccc(N)nc1=O (stereo partly drawn)
Out: 29.6

In: Kindly indicate its recorded EC90. Item: O=c1nc(NO)ccn1C1CCC(CO)O1 (stereo not drawn)
Out: 83.4

In: Kindly indicate its recorded EC90. Item: `CC(C)C(=O)OC[C@@H]1OC[C@H](n2cnc3c(Cl)nc(Cl)nc32)O1`
Out: 6.5

* * *

Listed next: entries and their corresponding pEC50.
# Tested on: SARS-CoV-2
# experiment.notes: microbe, parasite or virus in culture
# Format: cell-based
# run.parameters: Severe acute respiratory syndrome coronavirus 2, Vero, 48 h, read-out: Anti-SARS-COV-2 activity in Vero cells EC50
pEC50: −log10 of the molar value.

> print(dat)
                                   compound  endpoint.result
1  Nc1nc2c(ncn2[C@H]2CO[C@@H](CO)O2)c(=O)[nH]1           < 5.00

In: Fetch value of pEC50 on SARS-CoV-2 for CC(C)OC(=O)[C@H](C)N[P@](=O)(OC[C@H]1O[C@@H](n2ncc(=O)[nH]c2=O)C(O)C1O)Oc1ccccc1 (stereo partly drawn) .
Out: > 5.00

In: Fetch value of pEC50 on SARS-CoV-2 for `C#C[C@]1(CO[P@@](=O)(N[C@@H](C)C(=O)OC(C)C)Oc2ccccc2)O[C@@H](n2ccc(=O)[nH]c2=O)[C@H](O)[C@@H]1O` .
Out: > 5.00

In: Fetch value of pEC50 on SARS-CoV-2 for CC(C)OC(=O)[C@H](C)N[P@@](=O)(OC[C@H]1O[C@@H](n2ccc(=O)[nH]c2=O)C(F)C1O)Oc1ccccc1 (stereo partly drawn) .
Out: > 5.00

In: Fetch value of pEC50 on SARS-CoV-2 for CC(C)OC(=O)[C@H](C)N[P@](=O)(OC[C@H]1O[C@@H](n2ncc(=O)[nH]c2=O)[C@](C)(O)C1O)Oc1ccccc1 (stereo partly drawn) .
Out: 5.00

In: Fetch value of pEC50 on SARS-CoV-2 for CC(C)OC(=O)[C@H](C)NP(=O)(OC[C@@H]1C=C[C@H](n2cnc3c(Cl)nc(Cl)nc32)C1)Oc1ccccc1 (stereo partly drawn) .
Out: > 5.00

In: Fetch value of pEC50 on SARS-CoV-2 for CCOC(=O)[C@H](C)NP(=O)(OC[C@@H]1OC[C@H](n2cnc3c(OC)nc(N)nc32)O1)Oc1ccccc1 (stereo partly drawn) .
Out: < 5.00

* * *

# Test system: SARS-CoV-2
# experiment.notes: microbe, parasite or virus in culture
# Type: cell-based
# run.parameters: Severe acute respiratory syndrome coronavirus 2, Vero, 48 h, read-out: Anti-SARS-COV-2 activity in Vero cells EC50
pEC50: −log10 of the molar value.
Listed next: entries and their corresponding pEC50.

Worked cases, answers included:
> print(dat)
                                   compound  endpoint.result
1  CC(C)OC(=O)[C@H](C)N[P@](=O)(OC[C@@H]1OC[C@H](n2cnc3c(Cl)nc(Cl)nc32)O1)Oc1ccccc1           < 5.00
2  CC(C)OC(=O)[C@H](C)NP(=O)(OC[C@H]1C[C@@H](n2cnc3c(N)ncnc32)C(O)C1O)Oc1ccccc1 (some centres unmarked)           > 5.00
3  CC(C)OC(=O)[C@H](C)NP(=O)(OC[C@H]1O[C@@H](n2ccc(N)nc2=O)C(O)C1(C)O)Oc1ccccc1 (some centres unmarked)             5.03
4  CC(C)OC(=O)[C@H](C)NP(=O)(OC[C@@H]1CC[C@H](n2cnc3c(Cl)nc(Cl)nc32)C1)Oc1ccccc1 (some centres unmarked)           > 5.00

Now look at this one.
In: Kindly indicate its recorded pEC50. Item: CC(C)OC(=O)[C@H](C)NP(=O)(OC[C@H]1O[C@@H](n2cnc3c(N)ncnc32)C(C)(O)C1O)Oc1ccccc1 (some centres unmarked)
Out: > 5.00
